src = ChEMBL document CHEMBL1122040

# SYSTEM TESTED: Phosphodiesterase; PDE3 & PDE4 (Homo sapiens) (UniProt P27815+Q14432+Q08499+Q07343+Q13370+Q08493)
# MEASUREMENT DESCRIPTION: Inhibitory activity toward phosphodiesterase isolated from rabbit kidney
# Format: protein assay
# RECORDED CONDITIONS: Oryctolagus cuniculus; target entry is the homologue from another species
OBSERVABLE: Inhibitory activity

Please review the entries below; each comes with its answer.
* Cc1cc(NN(C)C)n2nc(SCc3ccccc3)nc2n1 | 8
* Cc1cc(O)n2nc(SCc3ccccc3)nc2n1 | 0.75
* Cc1cc(C)n2nc(SCc3ccc(Cl)cc3)nc2n1 | 4
* CCN(CC)c1cc(C)nc2nc(SCc3ccccc3)nn12 | 2.3
* CCCNc1cc(C)nc2nc(SCc3ccccc3)nn12 | 0.9

P. Cc1cccc(CSc2nc3nc(C)cc(C)n3n2)c1
Q. CSc1nc2nc(C)cc(C)n2n1
Query :: Between P and Q , which one has the lower reported Inhibitory activity value? Return value: the label identifying the chosen record.
Result :: Q
(Q: 0.25, P: 0.7)
